Kindly state protein stability index for each of the entries shown.
B1: TBC1D10A (parent)
chain: WCLVQICEKYLPGYYSEKLEAIQL

- Variants of: B1
- RUN_DESCRIPTION: protein stability index of a GFP-peptide fusion (GPS, HEK-293T) (PSI 1-6); higher = more stable;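 note: lentivirally expressed fusions sorted by FACS into six bins by GFP to DsRed ratio, PSI derived from sequencing read proportions per bin multiplied by bin number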
- REPORTED_CONDITIONS: c terminus: a fixed tail appended
A bare number is all that is needed in reply.

Q. Find the recorded protein stability index belonging to Q23H and report it.
A. 2.13

Q. Same thing, different variant: K18V
A. 3.17

Q. # iterate: Y14N
A. 3.59

Q. Let us now turn to E17C
A. 2.56

Q. Entry C2G please
A. 2.79

Q. Now try I22Q .
A. 2.4

Q. Entry to check: E20W
A. 1.74

Q. Now consider E17M and answer again.
A. 3.65

Q. Again, but for Q23N
A. 3.14

Q. Proceed to Y15F
A. 1.24

Q. And Y14K ?
A. 3.06

Q. What do you get for I22G ?
A. 2.35

Q. Query C7L next
A. 3.68

Q. And S16D ?
A. 2.24

Q. Now consider I6P and answer again.
A. 2.45

Q. Lookup E20K
A. 3.35

Q. // same read-out, input: Q23P
A. 1.64

Q. Another variant to look at: Y14E
A. 1.59

Q. What about Y10M ?
A. 3.09

Q. Another variant to look at: L3H
A. 1.87

Q. Another variant: S16E
A. 4.03

Q. Quick one: E8A
A. 2.95
